B1: Hairpin Ribozyme (parent)
chain: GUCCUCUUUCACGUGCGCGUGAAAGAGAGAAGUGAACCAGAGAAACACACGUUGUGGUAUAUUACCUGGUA

Variants of: B1
Experiment: self-cleavage, relative activity (ratio to wild type); higher = more cleavage; co-transcriptional
Item-by-item account of self-cleavage

| Mutant label | self-cleavage |
| --- | --- |
| U8A C12U | 0.747 |
| C10A G51U | 0.678 |
| U53G G56C | 0.125 |
